assay: Quantitative High-Throughput drug screen in 47 multiple myeloma cell lines against the NCATS MIPE library collection: KMS28PE_JCRB cell viability assay (AID 1918983); details: KMS28PE multiple myeloma viability, CellTiter-Glo ATP, 48 h; series mostly up to 45.8 µM; also: nearly all actives have a fitted effect of over 35% in size
Inconclusive results are not listed. The source made the active and inactive calls. Calls follow the shape of the dose curve; as a rule, active = well fitted cell-killing curve with a large enough effect; inconclusive = small, poorly fitted or top-dose-only effect, or effect the other way; inactive = no such curve, though single readings can be large or run the other way.
Can you answer with just one of these options? active, inactive

Prompt line: // param item: `O=C(O)C=Cc1ccc(Cn2ccnc2)cc1` ; yields the recorded call
Response line: inactive

Prompt line: What classification did O=C1NC(O)CCN1[C@@H]1O[C@H](CO)[C@H](O)[C@H]1O (some centres undefined) end up with in this test?
Response line: inactive

Prompt line: What is the recorded call for this molecule in the test? `COc1cc(C=CC(=O)CC(=O)C=Cc2ccc(O)c(OC)c2)ccc1O`
Response line: active

Prompt line: Please indicate how the test categorized C=C[C@@H]1CN2CCC1C[C@H]2[C@H](O)c1ccnc2ccc(OC)cc12 (some centres undefined) .
Response line: inactive

Prompt line: For this molecule, state the assay outcome: `C[C@H]1C[C@H]2[C@@H]3CCC4=CC(=O)C=C[C@]4(C)[C@@H]3C(=O)C[C@]2(C)[C@@]1(O)C(=O)CO`
Response line: inactive

Prompt line: I would be grateful if you could indicate the recorded call for `COc1ccc(CCC(=O)c2c(O)cc(O[C@@H]3O[C@H](CO)[C@@H](O)[C@H](O)[C@@H]3O[C@@H]3O[C@@H](C)[C@H](O)[C@@H](O)[C@@H]3O)cc2O)cc1O` .
Response line: inactive

Prompt line: Per the records of this test, what outcome belongs to `CCc1ccc(C(=O)Nc2cc(CN3CCN(C)CC3)cc(C(F)(F)F)c2)cc1C#Cc1cnc2ccnn2c1` ?
Response line: active

Prompt line: Outcome logged for `CC1(C)[C@H](O[C@H]2O[C@H](C(=O)O)[C@@H](O)[C@H](O)[C@H]2O[C@@H]2O[C@H](C(=O)O)[C@@H](O)[C@H](O)[C@H]2O)CC[C@@]2(C)[C@H]1CC[C@]1(C)[C@H]2C(=O)C=C2[C@H]3C[C@@](C)(C(=O)O)CC[C@]3(C)CC[C@]21C` in this assay:
Response line: inactive

Prompt line: What did this assay record as the result for `COC[C@H](NC(=O)c1cnc(C)s1)C(=O)N[C@@H](COC)C(=O)N[C@@H](Cc1ccccc1)C(=O)[C@@]1(C)CO1` ?
Response line: active

====

experiment: Quantitative High-Throughput drug screen in 47 multiple myeloma cell lines against the NCATS MIPE library collection: XG1_PLB cell viability assay (AID 1919866); conditions: CellTiter-Glo ATP, 48 h; series mostly up to 45.8 µM; also: nearly all actives have a fitted effect of over 35% in size
Results filed as inconclusive are left out. Activity calls are given as the source filed them. Calls follow the shape of the dose curve; as a rule, active = well fitted cell-killing curve with a large enough effect; inconclusive = small, poorly fitted or top-dose-only effect, or effect the other way; inactive = no such curve, though single readings can be large or run the other way.
Would you mind answering with one of these outcomes? active, inactive

Prompt line: Answer briefly: the call reported for CC(=O)NC(CS)C(=O)O (stereo not given) in this assay.
Response line: inactive

Prompt line: For `C[C@@]12C[C@@]3(O)O[C@@H](O1)[C@]1(COC(=O)c4ccccc4)[C@@H]3C[C@@]12O[C@@H]1O[C@H](CO)[C@@H](O)[C@H](O)[C@@H]1O` , what call appears in the results of this test?
Response line: inactive

Prompt line: Call for entry `CCOC(=O)C=C[C@H](C[C@@H]1CCNC1=O)NC(=O)[C@@H](CC(=O)[C@@H](NC(=O)c1cc(C)on1)C(C)C)Cc1ccc(F)cc1` :
Response line: inactive

Prompt line: Returns: the outcome recorded for `Cc1cnc(Nc2ccc(CN3CCOCC3)cc2)nc1Nc1cccc(S(=O)(=O)NC(C)(C)C)c1` in this assay.
Response line: active

Prompt line: Test call for this compound, please: `Cc1nc(NC(=O)N2CCC[C@@H]2C(N)=O)sc1-c1ccnc(C(C)(C)C(F)(F)F)c1`
Response line: active
